# Target or system: human MCP-1 binding to THP-1 cells (Homo sapiens, UniProt P41597)
# Construct: endogenous in cells; host or cells: THP-1 (whole cells)
# Sequence (P41597 1-360 isoform P41597-2): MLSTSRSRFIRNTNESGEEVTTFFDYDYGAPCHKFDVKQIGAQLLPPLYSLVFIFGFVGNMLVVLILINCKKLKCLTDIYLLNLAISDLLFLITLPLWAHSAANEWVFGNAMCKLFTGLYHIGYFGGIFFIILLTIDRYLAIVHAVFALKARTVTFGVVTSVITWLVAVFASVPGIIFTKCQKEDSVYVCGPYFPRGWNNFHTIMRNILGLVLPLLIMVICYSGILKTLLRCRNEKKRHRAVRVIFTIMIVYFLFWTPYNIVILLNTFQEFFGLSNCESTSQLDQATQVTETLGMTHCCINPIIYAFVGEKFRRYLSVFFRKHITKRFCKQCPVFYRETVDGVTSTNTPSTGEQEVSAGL
# Experiment: Inhibitory activity against binding of [125I]-labeled human MCP-1 to THP-1 cells (method 2)
# Test conditions: concentration of 1 μM
Experimental endpoint: inhibition at 1 µM

>>> df
                               smiles_entry  recorded_measurement
0  COCCNC(=O)c1ccc(CN2CCC(CNC(=O)CNC(=O)c3cccc(C(F)(F)F)c3)CC2)cc1             20 to 50%
1  COc1ccc(CN2CCC(CNC(=O)CNC(=O)c3cccc(C(F)(F)F)c3)CC2)cc1O             20 to 50%
2  Cc1ccc(C(=O)NCC(=O)NCC2CCN(Cc3ccc(Cl)cc3)CC2)cc1Br             50 to 80%

IN: Which inhibition at 1 µM value belongs to Nc1ccc(C(F)(F)F)cc1C(=O)NCC(=O)N[C@@H]1CCN(c2ccc3ocnc3c2)C1 ?
OUT: > 80%

Source: patent US7390830B1
